Biological target: Acetylcholinesterase (Homo sapiens)
Overview of recorded pIC50 for various compounds
Units for pIC50: none; it is -log10 of a concentration expressed in mol/L.

Recorded results for 5 compounds are shown here.
INSERT INTO results (smi, targetdesc, testresult) VALUES
  ('Cc1ccc(NC(=O)c2cc(=O)c3cc(/C=C/C(=O)O)ccc3o2)cc1', 'Acetylcholinesterase (Homo sapiens)', 5.29),
  ('CCN(CC)CCOC(=O)/C=C/c1ccc2occ(C(=O)Nc3cccc(Cl)c3)c(=O)c2c1', 'Acetylcholinesterase (Homo sapiens)', 5.07),
  ('CCN(CC)CCOC(=O)/C=C/c1ccc2occ(C(=O)Nc3ccc(C)cc3)c(=O)c2c1', 'Acetylcholinesterase (Homo sapiens)', 5.05),
  ('CN(C)CCOC(=O)/C=C/c1ccc2oc(C(=O)Nc3cccc(Cl)c3)cc(=O)c2c1', 'Acetylcholinesterase (Homo sapiens)', 5.23),
  ('CCN(CC)CCOC(=O)/C=C/c1ccc2oc(C(=O)Nc3ccc(OC)cc3)cc(=O)c2c1', 'Acetylcholinesterase (Homo sapiens)', 5.94);

Now look at this one.
# input Recorded pIC50 of `CCN(CC)CCOC(=O)/C=C/c1ccc2occ(C(=O)Nc3ccc(OC)cc3)c(=O)c2c1` , please.
# output 5.27

----------
Biological target: Acetylcholinesterase (Homo sapiens, UniProt P22303)
Sequence (P22303 whole entry): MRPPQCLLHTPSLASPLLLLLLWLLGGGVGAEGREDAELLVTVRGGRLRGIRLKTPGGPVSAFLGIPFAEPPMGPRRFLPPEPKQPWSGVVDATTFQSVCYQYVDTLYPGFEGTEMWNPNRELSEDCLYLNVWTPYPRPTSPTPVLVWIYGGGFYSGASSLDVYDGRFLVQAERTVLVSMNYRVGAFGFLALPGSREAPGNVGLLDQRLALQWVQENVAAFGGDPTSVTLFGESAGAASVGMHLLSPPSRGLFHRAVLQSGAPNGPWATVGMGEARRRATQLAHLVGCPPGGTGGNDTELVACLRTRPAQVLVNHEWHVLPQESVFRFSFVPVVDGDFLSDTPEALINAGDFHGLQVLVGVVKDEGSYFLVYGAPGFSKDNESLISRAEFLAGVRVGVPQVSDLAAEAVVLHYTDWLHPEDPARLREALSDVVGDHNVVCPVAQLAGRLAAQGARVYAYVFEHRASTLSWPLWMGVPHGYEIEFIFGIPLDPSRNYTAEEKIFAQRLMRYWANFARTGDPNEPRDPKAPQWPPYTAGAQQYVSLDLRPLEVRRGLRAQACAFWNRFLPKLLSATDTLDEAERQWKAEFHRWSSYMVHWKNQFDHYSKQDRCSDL
measuredQuantity: Ki (nM)
Just the number in nM, nothing appended.

# input Enter reported Ki observed with Acetylcholinesterase (Homo sapiens, UniProt P22303) for `Cc1ccc(NC(=O)c2cc(=O)c3cc(/C=C/C(=O)OCCN(C)C)ccc3o2)cc1`
# output 190

----------
Overview of recorded IC50 for various molecules
Biological target: Amine oxidase [flavin-containing] A (Homo sapiens, UniProt P21397)
Sequence (P21397 whole entry): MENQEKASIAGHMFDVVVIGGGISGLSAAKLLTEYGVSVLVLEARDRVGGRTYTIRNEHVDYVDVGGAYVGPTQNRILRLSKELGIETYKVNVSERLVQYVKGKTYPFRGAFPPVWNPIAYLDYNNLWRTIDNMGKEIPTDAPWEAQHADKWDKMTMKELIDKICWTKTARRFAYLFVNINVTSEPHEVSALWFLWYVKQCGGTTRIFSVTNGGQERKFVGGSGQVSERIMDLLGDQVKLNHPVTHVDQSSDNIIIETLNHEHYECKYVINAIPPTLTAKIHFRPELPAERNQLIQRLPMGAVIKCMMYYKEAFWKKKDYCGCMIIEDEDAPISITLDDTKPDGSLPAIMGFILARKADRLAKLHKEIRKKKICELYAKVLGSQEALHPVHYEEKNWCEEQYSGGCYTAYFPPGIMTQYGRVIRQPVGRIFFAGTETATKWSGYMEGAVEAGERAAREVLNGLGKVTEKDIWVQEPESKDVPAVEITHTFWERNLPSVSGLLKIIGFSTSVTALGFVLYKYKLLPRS
Experiment: biochemical
Description: Inhibition of human recombinant microsomal MAOA expressed in baculovirus infected BTI-TN-5B1- 4 cells using p-tyramine as substrate assessed as decrease in H2O2 production by amplex red-based fluorescence assay

INSERT INTO results (smi, targetdesc, testresult) VALUES
  ('Cc1ccc(NC(=O)c2cc(=O)c3cc(/C=C/C(=O)OCCN(C)C)ccc3o2)cc1', 'Amine oxidase [flavin-containing] A (Homo sapiens, UniProt P21397)', '940 nM');

Now look at this one.
# input Enter reported IC50 observed with Amine oxidase [flavin-containing] A (Homo sapiens, UniProt P21397) for `COc1ccc(NC(=O)c2cc(=O)c3cc(/C=C/C(=O)OCCN(C)C)ccc3o2)cc1`
# output 4910 nM

Numbers sourced from ChEMBL document CHEMBL4265951.
